# experimental-details: HepG2 cytotoxicity screening (CellTiter-Glo)
# recorded-conditions: human, uninfected HepG2-A16-CD81 (EGFP) hepatocytes
pIC50: −log10 of the molar value.
property-name: pIC50

1. NC(=O)CCn1cc(CNCc2csc(N)n2)c2ccccc21 [UCSD-0835992] = < 4.30
2. CC(C)Cc1ccc(S(=O)(=O)Nc2ccc(=O)n(C)c2)cc1 [UCSD-0710590] = < 6.51
3. CC(C)c1n[nH]c(C(=O)Nc2ccccn2)c1Br [UCSD-0842403] = < 4.30
4. CCNc1ccnc(CN2CCCC2C(=O)Nc2nccs2)c1 (stereo not shown) [UCSD-0809356] = < 4.60
5. Cc1[nH]/c(=N\C(=O)c2csc(NC3CCCC3)n2)sc1C [UCSD-0752597] = 4.96
6. Cc1[nH]/c(=N\C(=O)c2csc(NCC(C)C)n2)sc1C [UCSD-0795190] = < 4.60

### Prompt Provide measured pIC50 value, entry: CC(=O)N1CCN(Cc2cccc3c2sc2ccccc23)CC(O)C1 (stereo not shown) [UCSD-0830872]
### Response < 4.60

### Prompt Give the reported pIC50 for this molecule. N#Cc1c(Cl)nsc1NCC1(c2ccccc2)CCC1 [UCSD-0818294]
### Response < 4.60
